- Species: Mus musculus
- assayComment: Concentration required to inhibit electrically induced contractions in isolated mouse vas deferens preparation in vitro
- Type: functional
- assaySetup: Mus musculus
measuredEndpoint: IC50 (nM)
Reply with just the number (in nM).

Field: example entries. Status: answers known.
{"chemicalString": "Cc1c(C(=O)c2cc3ccccc3o2)c2ccccc2n1CCN1CCOCC1", "IC50 [nM]": 324}
{"chemicalString": "O=C(c1cccc2ccccc12)c1cn(CCN2CCOCC2)c2ccccc12", "IC50 [nM]": 6.3}
{"chemicalString": "Cc1c(C(=O)c2ccccc2F)c2ccccc2n1CCN1CCOCC1", "IC50 [nM]": 1940}
{"chemicalString": "O=C(c1cccc2ccccc12)c1cn(CCN2CCOCC2)c2ccc(F)cc12", "IC50 [nM]": 7.3}
{"chemicalString": "Cc1c(C(=O)c2ccccc2Cl)c2ccccc2n1CCN1CCOCC1", "IC50 [nM]": 92}

Query :: Please report the measured IC50 for "CCc1ccc(C(=O)c2c(C)n(CCN3CCOCC3)c3ccccc23)cc1"
Result :: 71

Query :: Please report the measured IC50 for "Cc1c(C=O)c2ccccc2n1CCN1CCOCC1"
Result :: 656
